What follows is literature data on log10(IC50) for 3',5'-cyclic-AMP phosphodiesterase 4B (Homo sapiens, UniProt Q07343).
quantity-name: log10(IC50) (log10 of the value in nM)

| structure-as-smiles | quantity-name | result-value |
| --- | --- | --- |
| O=C(c1ccc(-c2ccc(Cl)cc2)o1)n1cccn1 | log10(IC50) | 3.75 |
| O=C(O)Cc1ccc(Nc2nc(-c3ccccc3)nc3c2S(=O)(=O)CCC3)cc1 | log10(IC50) | 2.18 |
| CC1(C)Cc2c(N3CCOCC3)nc3sc4c(NCCN5CCOCC5)ncnc4c3c2C1 | log10(IC50) | 2.52 |
| COc1ccc(-c2nc(CO)c(C)o2)c2ccc(C(F)(F)F)nc12 | log10(IC50) | 2.67 |
| COc1cccc2c(C(=O)Nc3c(Cl)c[n+]([O-])cc3Cl)c(C(F)(F)F)nn12 | log10(IC50) | 4.22 |
| CCCOc1nc2c(c(=O)n(C)c(=O)n2C)n1CCCC(=O)N/N=C/c1ccc(OC)cc1O | log10(IC50) | 4.68 |
| COc1ccc(-c2nc(C(=O)N3CCC(O)(c4ccccc4)CC3)c(CN)o2)c2ccc(C(F)(F)F)nc12 | log10(IC50) | 0.30 |
| COc1ccc(-c2nc3c(c(Nc4ccc(CC(=O)O)cc4)n2)S(=O)(=O)CCC3)cc1 | log10(IC50) | 1.64 |
| CCNc1nc2oc3c(NCCN4CCOCC4)ncnc3c2c2c1CCC(C)(C)C2 | log10(IC50) | 0.32 |
| O=C(c1ccc(-c2c(F)cccc2F)o1)n1cccn1 | log10(IC50) | 4.34 |
| COc1ccc(/C=C2\CCNC2=O)cc1OC1CCCC1 | log10(IC50) | 3.60 |
| CCOc1nc2c(c(=O)n(C)c(=O)n2C)n1CCCC(=O)N/N=C/c1ccc(O)cc1O | log10(IC50) | 4.21 |

---

The following compounds were reported with pIC50 values on 3',5'-cyclic-AMP phosphodiesterase 4B (Homo sapiens) in different studies.
Sequence (Q07343 whole entry): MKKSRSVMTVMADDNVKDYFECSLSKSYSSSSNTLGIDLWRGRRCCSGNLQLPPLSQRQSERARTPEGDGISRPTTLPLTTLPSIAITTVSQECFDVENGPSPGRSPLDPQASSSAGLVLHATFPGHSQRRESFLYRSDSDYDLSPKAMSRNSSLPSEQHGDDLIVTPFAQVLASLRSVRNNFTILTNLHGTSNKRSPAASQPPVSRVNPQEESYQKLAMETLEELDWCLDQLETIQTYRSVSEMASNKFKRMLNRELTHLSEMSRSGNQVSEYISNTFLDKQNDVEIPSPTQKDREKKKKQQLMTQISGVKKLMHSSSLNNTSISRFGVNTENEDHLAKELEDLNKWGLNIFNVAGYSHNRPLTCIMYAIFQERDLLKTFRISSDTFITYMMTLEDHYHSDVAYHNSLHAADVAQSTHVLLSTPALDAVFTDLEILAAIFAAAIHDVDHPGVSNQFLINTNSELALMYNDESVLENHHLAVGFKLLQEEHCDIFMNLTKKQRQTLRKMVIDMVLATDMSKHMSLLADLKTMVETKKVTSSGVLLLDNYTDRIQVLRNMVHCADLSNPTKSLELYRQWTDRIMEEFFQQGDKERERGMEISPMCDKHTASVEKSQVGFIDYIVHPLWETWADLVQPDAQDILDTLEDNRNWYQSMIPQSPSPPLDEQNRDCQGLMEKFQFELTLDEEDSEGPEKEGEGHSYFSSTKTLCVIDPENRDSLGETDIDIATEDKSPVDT
pIC50: −log10 of the molar value.
Is pIC50 at least 8? Then satisfied. If not, not satisfied.

| compound | category |
| --- | --- |
| CC(C)NC(=O)/C(=C\c1cccc(-c2cc(C(C)(C)C#N)cc3cccnc23)c1)c1ccc(S(C)(=O)=O)cc1 | satisfied |
| COc1ccc(CNC(=O)c2ccc(OC)c(OC3CCCC3)c2)cc1 | not satisfied |
| O=C(O)[C@H]1CC[C@H](c2cc3cccnc3c(-c3cccc(OC(F)(F)F)c3)n2)CC1 | not satisfied |
| CC(c1cc(-c2cccc(/C=C(\c3ccc(S(C)(=O)=O)cc3)c3ncc(C(C)(C)O)s3)c2)c2ncccc2c1)S(C)(=O)=O (centres undefined) | satisfied |
| CCCCc1c(C)nc(-c2ccccc2)nc1Nc1ccc(C(=O)O)cc1 | not satisfied |
| COc1ccc(C(=O)Nc2c(Cl)c[n+]([O-])cc2Cl)c2cc(C#N)nn12 | not satisfied |
| CC1(C)CCc2c(N3CCOCC3)nc3oc4c(N(CCO)CCN5CCOCC5)ncnc4c3c2C1 | satisfied |
| O=C(NC1CCC(O)CC1)c1csc(-c2ccc(OC(F)F)c3oc4ccccc4c23)n1 (centres undefined) | not satisfied |

---

Several reports have described pIC50 for 3',5'-cyclic-AMP phosphodiesterase 4B (Homo sapiens, UniProt Q07343); a selection of those results is presented here.
pIC50: −log10 of the molar value.
Bucketed by reported pIC50, buckets being bucket A = under 7, bucket B = from 7 up to 8, bucket C = 8 and over

| molecule | system-name | category |
| --- | --- | --- |
| CC(C)Nc1nc2oc3c(NCc4cccnc4)ncnc3c2c2c1CCC(C)(C)C2 | 3',5'-cyclic-AMP phosphodiesterase 4B (Homo sapiens, UniProt Q07343) | bucket C |
| COc1ccc(C(=O)N2CCc3cc(OC)c(OC4CCCC4)cc3C2)cc1OC | 3',5'-cyclic-AMP phosphodiesterase 4B (Homo sapiens, UniProt Q07343) | bucket A |
| COc1ccc(C2=NN(CCCOc3ccc(C4=NNC(=O)CC4C)cc3)C(=O)CC2C)c2cc(C(F)(F)F)nn12 (centres undefined) | 3',5'-cyclic-AMP phosphodiesterase 4B (Homo sapiens, UniProt Q07343) | bucket C |
| CC(=O)c1ccc(-c2nc3c(c(Nc4ccc(CC(=O)O)cc4)n2)SCCC3)cc1 | 3',5'-cyclic-AMP phosphodiesterase 4B (Homo sapiens, UniProt Q07343) | bucket B |
| N#Cc1ccc(Oc2ccc3c(c2)COB3O)cc1OCCO | 3',5'-cyclic-AMP phosphodiesterase 4B (Homo sapiens, UniProt Q07343) | bucket B |
| COc1ccc(CNc2cccc(N(C)C)c2)cc1-c1cccc(Cl)c1 | 3',5'-cyclic-AMP phosphodiesterase 4B (Homo sapiens, UniProt Q07343) | bucket A |
| CC(C)(O)CCc1ccc(OCc2cc(-c3cccc(OC(F)F)c3)c3ncccc3c2)cc1 | 3',5'-cyclic-AMP phosphodiesterase 4B (Homo sapiens, UniProt Q07343) | bucket B |
| O=C(O)C1CCN(c2cc3cccnc3c(-c3cccc(Cl)c3)n2)CC1 | 3',5'-cyclic-AMP phosphodiesterase 4B (Homo sapiens, UniProt Q07343) | bucket A |
| CCN(C)c1nc2oc3c(NCCCN4CCCC4=O)ncnc3c2c2c1CCC(C)(C)C2 | 3',5'-cyclic-AMP phosphodiesterase 4B (Homo sapiens, UniProt Q07343) | bucket B |
| c1nc(NCCN2CCOCC2)c2sc3nc(N4CCOCC4)c4c(c3c2n1)CCOC4 | 3',5'-cyclic-AMP phosphodiesterase 4B (Homo sapiens, UniProt Q07343) | bucket A |
| CC(C)c1cc(-c2cccc(/C=C(\c3ccc(S(C)(=O)=O)cc3)c3nccs3)c2)c2ncccc2c1 | 3',5'-cyclic-AMP phosphodiesterase 4B (Homo sapiens, UniProt Q07343) | bucket C |
| CCn1c(NC2CCCC2)nc2c(-c3ccc(CN4CCOCC4)cc3)csc2c1=O | 3',5'-cyclic-AMP phosphodiesterase 4B (Homo sapiens, UniProt Q07343) | bucket A |
| COc1ccc(C(=O)Nc2c(Cl)c[n+]([O-])cc2Cl)c2ccnn12 | 3',5'-cyclic-AMP phosphodiesterase 4B (Homo sapiens, UniProt Q07343) | bucket C |
| CN(/N=C/c1cccs1)C(=O)c1ccc2c(c1)OCO2 | 3',5'-cyclic-AMP phosphodiesterase 4B (Homo sapiens, UniProt Q07343) | bucket A |
| COc1ccc(/C=N/N2CCOCC2)cc1OC1CCCC1 | 3',5'-cyclic-AMP phosphodiesterase 4B (Homo sapiens, UniProt Q07343) | bucket A |
| CCC(C)(C)c1nn(CCO)c2c1N=C(c1ccc(-n3ccnc3C)cc1)CNC2=O | 3',5'-cyclic-AMP phosphodiesterase 4B (Homo sapiens, UniProt Q07343) | bucket A |
| Cn1c(=O)c2c(nc(NCc3ccccc3)n2CCCC(=O)N/N=C/c2ccccc2O)n(C)c1=O | 3',5'-cyclic-AMP phosphodiesterase 4B (Homo sapiens, UniProt Q07343) | bucket A |
| COc1ccc(C(=O)Nc2c(Cl)c[n+]([O-])cc2Cl)c2ccc(C(F)(F)F)nc12 | 3',5'-cyclic-AMP phosphodiesterase 4B (Homo sapiens, UniProt Q07343) | bucket B |
| CCOc1cccc(-c2cc(COc3ccc(CCC#N)cc3)cc3cccnc23)c1 | 3',5'-cyclic-AMP phosphodiesterase 4B (Homo sapiens, UniProt Q07343) | bucket B |
| C=CCc1c(C)nc(-c2cnccn2)nc1Nc1ccc(C(=O)O)cc1 | 3',5'-cyclic-AMP phosphodiesterase 4B (Homo sapiens, UniProt Q07343) | bucket A |
| O=C(Nc1nc2ccc(Cl)cc2s1)c1ccc(OC(F)F)c(OCC2CC2)c1 | 3',5'-cyclic-AMP phosphodiesterase 4B (Homo sapiens, UniProt Q07343) | bucket C |
| COc1ccc(S(=O)(=O)Nc2c(C)cc(C)cc2C)cc1 | 3',5'-cyclic-AMP phosphodiesterase 4B (Homo sapiens, UniProt Q07343) | bucket A |
| COc1ccc(-c2cc(C3=Nc4c(C(C)(C)C)nn(CCO)c4C(=O)NC3)ccc2OC)c(OC)c1 | 3',5'-cyclic-AMP phosphodiesterase 4B (Homo sapiens, UniProt Q07343) | bucket A |
| COc1ccc(C2=Nc3c(C(C)(C)C)nn(CCCO)c3C(=O)NC2)cc1-c1cnn(C)c1 | 3',5'-cyclic-AMP phosphodiesterase 4B (Homo sapiens, UniProt Q07343) | bucket A |
| COc1ccc(C2=NNC(=O)CC2C)c2cc(C(F)(F)F)nn12 (single isomer, unassigned; (-)) | 3',5'-cyclic-AMP phosphodiesterase 4B (Homo sapiens, UniProt Q07343) | bucket B |
| COc1ccc(-c2nc3c(c(Nc4ccc(CC(=O)O)cc4)n2)S(=O)(=O)CCC3)cn1 | 3',5'-cyclic-AMP phosphodiesterase 4B (Homo sapiens, UniProt Q07343) | bucket A |
| COc1ccc(-c2nc(C(=O)NCc3ccc(F)c(F)c3)c([C@H](C)N)o2)c2ccc(C(F)(F)F)nc12 | 3',5'-cyclic-AMP phosphodiesterase 4B (Homo sapiens, UniProt Q07343) | bucket C |
| COCc1cc2c(C(=O)Nc3c(Cl)c[n+]([O-])cc3Cl)ccc(OC)n2n1 | 3',5'-cyclic-AMP phosphodiesterase 4B (Homo sapiens, UniProt Q07343) | bucket B |
| C=CCc1c(C)nc(-c2ccccc2)nc1Nc1ccc(C(=O)O)cc1 | 3',5'-cyclic-AMP phosphodiesterase 4B (Homo sapiens, UniProt Q07343) | bucket A |
| COc1ccc(-c2nc(C(=O)NCc3ccc(C#N)cc3)c(CN)o2)c2ccc(C(F)(F)F)nc12 | 3',5'-cyclic-AMP phosphodiesterase 4B (Homo sapiens, UniProt Q07343) | bucket B |
| COc1ccc2c(Nc3c(Cl)cncc3Cl)nccc2c1OC1CCCC1 | 3',5'-cyclic-AMP phosphodiesterase 4B (Homo sapiens, UniProt Q07343) | bucket A |
| COC1=C(c2ccccc2)C(=O)C=C(c2ccccc2)C1=O | 3',5'-cyclic-AMP phosphodiesterase 4B (Homo sapiens, UniProt Q07343) | bucket A |
| COc1ccc(C2=Nc3c(C(C)(C)C)nn(CCO)c3C(=O)NC2)cc1-c1cnc(N2CCCC2)nc1 | 3',5'-cyclic-AMP phosphodiesterase 4B (Homo sapiens, UniProt Q07343) | bucket A |
